These measurements were taken from PubChem BioAssay (NCI).

- Test system: SNB-75 CNS
- assay_notes: NCI tumour cell line growth inhibition, 48 h
Label Satisfied when TGI is at or above 30 µM; otherwise label Not satisfied.

Known results for compounds:
• COc1cc(C(Cc2ccccc2)NC(C)=O)oc(=O)c1 (configuration not stated) = Satisfied
• Cn1nc(N)c2cc([C@@H]3Nc4ccc5[nH]ncc5c4[C@H]4C5CCC(C5)[C@@H]34)ccc21 (some centres not stated) = Not satisfied
• C=C1C(=O)C[C@H]2C(=C)C(=O)O[C@@H]2C2C1CC[C@@]2(C)O (some centres not stated) = Satisfied
• COC(=O)C1=C(C)NC2=C(C(=O)c3ccccc32)C1c1cn(-c2ccccc2)nc1-c1ccccc1 (configuration not stated) = Satisfied
• COc1cc(C2CC(c3cccc(Br)c3)=NN2C(C)=O)cc(OC)c1OC (configuration not stated) = Satisfied
• Cc1ccc(NC(=O)C(=O)C(C(=O)c2ccc3ccccc3c2)C2OC(=O)c3ccccc32)cc1C (configuration not stated) = Not satisfied
• Cn1cc(CO)c2c1C(=O)C=C(N1CC1)C2=O = Not satisfied
• COc1ccc(N2C(=O)CC(C3CC(C(C)(C)C)CCC3=O)C2=O)cc1 (configuration not stated) = Satisfied
• Cc1c([N+](=O)[O-])ccc2c(NCCCN(C)C)ccnc12 = Satisfied
• CN(C)N=Nc1ccc(NC=O)cc1 = Satisfied

Q: Tell me whether TGI is at least 30 µM here: N#Cc1c(NN)n(C2OC(CO)C(O)C2O)c2ncnc(N)c12 (configuration not stated)
Ans: Not satisfied

Q: Item CCOC(=O)CCCn1c(SC)nc2[nH]cc(-c3ccccc3)c2c1=O with TGI of 30 µM or above?
Ans: Satisfied
